Target: interaction between glucokinase (GK) and glucokinase regulatory protein (GKRP) (Homo sapiens, UniProt Q14397)
Sequence (Q14397 whole entry): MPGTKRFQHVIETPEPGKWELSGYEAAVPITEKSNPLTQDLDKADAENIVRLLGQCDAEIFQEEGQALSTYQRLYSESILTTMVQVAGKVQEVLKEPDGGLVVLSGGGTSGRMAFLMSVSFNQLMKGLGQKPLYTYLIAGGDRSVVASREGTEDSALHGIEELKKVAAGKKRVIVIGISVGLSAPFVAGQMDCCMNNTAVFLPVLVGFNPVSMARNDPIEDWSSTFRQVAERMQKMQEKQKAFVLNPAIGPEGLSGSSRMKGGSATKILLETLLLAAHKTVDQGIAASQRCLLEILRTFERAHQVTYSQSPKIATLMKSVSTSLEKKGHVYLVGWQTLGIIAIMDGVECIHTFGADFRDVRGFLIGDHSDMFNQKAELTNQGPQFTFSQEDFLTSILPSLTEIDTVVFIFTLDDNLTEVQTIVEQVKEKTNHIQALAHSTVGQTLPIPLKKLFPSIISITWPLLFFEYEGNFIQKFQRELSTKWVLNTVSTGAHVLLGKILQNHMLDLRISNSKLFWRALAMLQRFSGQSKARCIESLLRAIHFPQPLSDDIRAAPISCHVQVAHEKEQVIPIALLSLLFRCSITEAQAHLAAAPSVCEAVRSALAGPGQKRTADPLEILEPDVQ
Assay: biochemical
Type: binding
Details: avi-tagged GKRP, GK-fluorescein, AlphaScreen beads; read-out: GK-GKRP IC50 (Binding)
Description: GK-GKRP Binding Assay Protocol This assay is used to directly measure the interaction between glucokinase (GK) and glucokinase regulatory protein (GKRP). Begin by preparing the following solutions. Assay Buffer: 20 mM Tris, pH 7.5/0.05% BSA/1 mM DTT/1 μM sorbitol-6-phosphate. […] Combine the following reagents in a white 96-well half area plate. Pipette 14 μl of the diluted avi-tagged GKRP into each well. […] After 2 hours read the plate using an Envision plate reader (Perkin Elmer, Waltham Mass.).
Property Measured: IC50 (nM)
Give bare numbers, in nM.

Recorded IC50, per entry:
Input line: Please give the measured IC50 for this molecule: Nc1ccc(S(=O)(=O)N2CCN(c3ncc(C(O)(C(F)(F)F)C(F)(F)F)cn3)[C@@H](CN3C4COCC3CC(=O)C4)C2)cn1 [Example 99 nonan-7-one]
Output line: 75

Input line: Please give the measured IC50 for this molecule: C[C@H]1CN(S(=O)(=O)c2ccc(N)nc2)CCN1c1ncc(C(O)(C(F)(F)F)C(F)(F)F)cn1 [Example 93]
Output line: 190

Input line: Please give the measured IC50 for this molecule: CC(C)CS(=O)(=O)N(C[C@H]1CN(S(=O)(=O)c2cccs2)CCN1c1ccc(C(C)(O)C(F)(F)F)cc1)c1cccnc1 (mixture of isomers) [Example 223]
Output line: 35

Input line: Please give the measured IC50 for this molecule: O=S(=O)(c1cccs1)N1CCN(c2ncc(C(O)(C(F)(F)F)C(F)(F)F)cn2)[C@@H](CC2CCOCC2)C1 [Example 134]
Output line: 122

Input line: Please give the measured IC50 for this molecule: CC(O)(c1ccc(N2CCN(S(=O)(=O)c3cccs3)C[C@@H]2CNC2CCOCC2)cc1)C(F)(F)F (mixture of isomers) [Example 120]
Output line: 493

Input line: Please give the measured IC50 for this molecule: CS(=O)(=O)N(C[C@H]1CN(S(=O)(=O)c2ccc(N)nc2)CCN1c1ncc(C(O)(C(F)(F)F)C(F)(F)F)cn1)c1ccccc1 [Example 234]
Output line: 4

Input line: Please give the measured IC50 for this molecule: C[C@H]1CN(S(=O)(=O)c2cnc(N)s2)CCN1c1ncc(C(O)(C(F)(F)F)C(F)(F)F)cn1 [Example 147]
Output line: 998

Input line: Please give the measured IC50 for this molecule: C[C@H]1CN(S(=O)(=O)c2ccccc2N)CCN1c1ccc(C(O)(C(F)(F)F)C(F)(F)F)cc1 [Example 168]
Output line: 660

Input line: Please give the measured IC50 for this molecule: CCOC(=O)CC1COCCN1C[C@H]1CN(S(=O)(=O)c2cccs2)CCN1c1ccc(C(C)(O)C(F)(F)F)cc1 (mixture of isomers) [Example 113]
Output line: 333

Input line: Please give the measured IC50 for this molecule: COc1ccccc1CC1CN(S(=O)(=O)c2cccs2)CCN1c1ccc(C(O)(C(F)(F)F)C(F)(F)F)cc1 (racemic) [Example 174]
Output line: 167

Hello, I would appreciate it if you could give IC50 for each entry below.
1. CC(=O)N(C[C@H]1CN(S(=O)(=O)c2cccs2)CCN1c1ccc(C(C)(O)C(F)(F)F)cc1)C(C)C (mixture of isomers) [Example 196]
2. CC(O)(c1ccc(N2CCN(S(=O)(=O)c3cccs3)C[C@@H]2CN2CCOC[C@@H]2CO)cc1)C(F)(F)F (single isomer, unassigned) [Example 111 Peak #1]

Output line:
1: 466; 2: 64
